B1: glmS ribozyme (parent)
chain: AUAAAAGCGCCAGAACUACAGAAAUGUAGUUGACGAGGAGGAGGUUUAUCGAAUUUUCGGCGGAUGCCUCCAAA

# Variants of: B1
# procedure-summary: self-cleavage kobs at 40 uM GlcN6P; higher = faster cleavage; RNA array
# particulars: with glucosamine-6-phosphate
Fewer inactive variants are shown than the library holds.
Please provide measured self-cleavage kobs at 40 uM GlcN6P for the entries that follow.

The variant C8U A39U U45G C70G showed self-cleavage kobs at 40 uM GlcN6P equal to < 1e-05 s⁻¹

The variant U30A C68A showed self-cleavage kobs at 40 uM GlcN6P equal to < 1e-05 s⁻¹

The variant A6U A12C U45A A52C showed self-cleavage kobs at 40 uM GlcN6P equal to < 1e-05 s⁻¹

The variant C10U C34G C58U showed self-cleavage kobs at 40 uM GlcN6P equal to < 1e-05 s⁻¹

The variant C10U G40A A48C showed self-cleavage kobs at 40 uM GlcN6P equal to < 1e-05 s⁻¹

The variant A12C A42U A64G showed self-cleavage kobs at 40 uM GlcN6P equal to < 1e-05 s⁻¹

The variant A14C U55G showed self-cleavage kobs at 40 uM GlcN6P equal to 9.05e-05 s⁻¹

The variant U31A A36U showed self-cleavage kobs at 40 uM GlcN6P equal to < 1e-05 s⁻¹

The variant C8A G43A showed self-cleavage kobs at 40 uM GlcN6P equal to < 1e-05 s⁻¹

The variant C8A A53G G63A showed self-cleavage kobs at 40 uM GlcN6P equal to < 1e-05 s⁻¹

The variant G37C U56G showed self-cleavage kobs at 40 uM GlcN6P equal to < 1e-05 s⁻¹

The variant G32U C34U A42C showed self-cleavage kobs at 40 uM GlcN6P equal to < 1e-05 s⁻¹

The variant G7U C10G A12U U65G C68G showed self-cleavage kobs at 40 uM GlcN6P equal to 7.58e-05 s⁻¹

The variant A12U G40C showed self-cleavage kobs at 40 uM GlcN6P equal to 0.000175 s⁻¹

The variant C10G G35U A39U showed self-cleavage kobs at 40 uM GlcN6P equal to < 1e-05 s⁻¹

The variant A39C U49C showed self-cleavage kobs at 40 uM GlcN6P equal to < 1e-05 s⁻¹

The variant U47G A64G showed self-cleavage kobs at 40 uM GlcN6P equal to 0.000278 s⁻¹

The variant A42G G43U C70U showed self-cleavage kobs at 40 uM GlcN6P equal to < 1e-05 s⁻¹

The variant U45A G51A showed self-cleavage kobs at 40 uM GlcN6P equal to < 1e-05 s⁻¹

The variant A33G C67A showed self-cleavage kobs at 40 uM GlcN6P equal to < 1e-05 s⁻¹

The variant A6G U30G U54A C67G showed self-cleavage kobs at 40 uM GlcN6P equal to < 1e-05 s⁻¹

The variant C58U showed self-cleavage kobs at 40 uM GlcN6P equal to < 1e-05 s⁻¹
